# TEST NAME: Trolox Equivalents Antioxidant Capacity (TEAC) assay
# Type: biochemical
# RECORDED CONDITIONS: compounds 10-1000 μM, ABTS 0.5 mM, 734 nm, 6 min; ratio of slopes, no unit; n = 3
Where a name gives a salt, the structure may show the parent alone.
Binarize TEAC (Trolox equivalent antioxidant capacity) ± SEM at 0.8; below is Met, at or above is Not met.

Query string: Just wondering, is TEAC (Trolox equivalent antioxidant capacity) ± SEM of O=c1c(O)c(-c2ccc(O)cc2)oc2cc(O)cc(O)c12 [Kaempferol, reference compound] below 0.8?
Result string: Not met

Query string: Just wondering, is TEAC (Trolox equivalent antioxidant capacity) ± SEM of COC(=O)CC(O)(CC(=O)OC)C(=O)OC [compound 11, trimethyl citrate] below 0.8?
Result string: Met

Query string: Just wondering, is TEAC (Trolox equivalent antioxidant capacity) ± SEM of O=C(O)c1ccc(O)c(O)c1 [compound 9, 3,4-dihydroxybenzoic acid] below 0.8?
Result string: Not met

Query string: Just wondering, is TEAC (Trolox equivalent antioxidant capacity) ± SEM of COc1cc(-c2oc3cc(O)cc(O[C@@H]4O[C@H](COC(=O)CC(C)(O)CC(=O)O)[C@@H](O)[C@H](O)[C@H]4O)c3c(=O)c2O)ccc1O (stereo partly drawn) [compound 1] below 0.8?
Result string: Not met

Query string: Just wondering, is TEAC (Trolox equivalent antioxidant capacity) ± SEM of O=C(/C=C/c1ccc(O)cc1)O[C@H]1C(Oc2c(-c3ccc(O)c(O)c3)oc3cc(O)cc(O)c3c2=O)O[C@H](CO)[C@@H](O)[C@@H]1O (stereo partly drawn) [compound 6, quercetin 3-O-(2-p-coumaroylglucoside)] below 0.8?
Result string: Met

Origin of measurements: patent US10005809B2
